System: Rattus norvegicus
run.description: Concentration accumulated in thyroid at 24 hr r after intravenous administration in rat
Format: ADME, organism-based, Thyroid gland
experimental.parameters: in vivo
metric.name: Dose/g (%)

> print(dat)
                                   compound  reported.result
1  C[C@@H](OC(=O)c1ccccc1I)C1CCC2C3CC=C4CC(O)CCC4(C)C3CCC21C (stereo not given in full)            52.36
2  CC(C)CCCC(C)C1CCC2C3CC(CI)C4=C(CCC(O)C4)C3CCC12C (stereo not given)            111.3
3  C[C@H](OC(=O)c1ccccc1I)C1CCC2C3CC=C4CC(O)CCC4(C)C3CCC21C (stereo not given in full)           511.17

P: C[C@H](NC(=O)c1ccccc1I)C1CCC2C3CC=C4CC(O)CCC4(C)C3CCC21C (stereo not given in full)
Q: C[C@@H](NC(=O)c1ccccc1I)C1CCC2C3CC=C4CC(O)CCC4(C)C3CCC21C (stereo not given in full)
Asked: Endpoint returns the identifier whose Dose/g is numerically larger, either P or Q . Could you answer with the label of the item you picked?
Given back: P

###

Test system: Rattus norvegicus
run.description: Concentration accumulated in liver at 24 hr r after intravenous administration in rat
Type: ADME, organism-based
experimental.parameters: in vivo
metric.name: Dose/g (%)

Consider the following illustrative entries.
> print(dat)
                                   molecule  readout.units  reported.result
1  C[C@H](OC(=O)c1ccccc1I)C1CCC2C3CC=C4CC(O)CCC4(C)C3CCC21C (stereo not given in full)              %              0.2
2  CC(C)CCCC(C)C1CCC2C3CC(CI)C4=C(CCC(O)C4)C3CCC12C (stereo not given)              %             1.34

a: C[C@@H](NC(=O)c1ccccc1I)C1CCC2C3CC=C4CC(O)CCC4(C)C3CCC21C (stereo not given in full)
b: C[C@H](NC(=O)c1ccccc1I)C1CCC2C3CC=C4CC(O)CCC4(C)C3CCC21C (stereo not given in full)
c: C[C@@H](OC(=O)c1ccccc1I)C1CCC2C3CC=C4CC(O)CCC4(C)C3CCC21C (stereo not given in full)
Asked: Thanks in advance: please rank these 3 entries by Dose/g, highest to lowest. Give the labels in the order requested.
Given back: a, c, b

###

Tested on: Rattus norvegicus
run.description: Concentration accumulated in blood at 0.5 hr after intravenous administration in rat
Assay type: ADME, organism-based
experimental.parameters: in vivo
metric.name: Dose/g (%)

1: C[C@H](NC(=O)c1ccccc1I)C1CCC2C3CC=C4CC(O)CCC4(C)C3CCC21C (stereo not given in full)
2: C[C@@H](OC(=O)c1ccccc1I)C1CCC2C3CC=C4CC(O)CCC4(C)C3CCC21C (stereo not given in full)
Asked: // select label with min value of measured Dose/g from [ 1 , 2 ] Could you answer with the label of the item you picked?
Given back: 1
(1: 0.1%, 2: 0.25%)

###

Tested on: Rattus norvegicus
run.description: Concentration accumulated in kidney at 24 hr r after intravenous administration in rat
Type: ADME, organism-based
experimental.parameters: in vivo
metric.name: Dose/g (%)

> print(dat)
                                   compound  system.under.test  metric.name  readout.units  reported.result
1  C[C@@H](NC(=O)c1ccccc1I)C1CCC2C3CC=C4CC(O)CCC4(C)C3CCC21C (stereo not given in full)  Rattus norvegicus       Dose/g              %             0.02

1: C[C@H](NC(=O)c1ccccc1I)C1CCC2C3CC=C4CC(O)CCC4(C)C3CCC21C (stereo not given in full)
2: C[C@@H](OC(=O)c1ccccc1I)C1CCC2C3CC=C4CC(O)CCC4(C)C3CCC21C (stereo not given in full)
Asked: // select label with min value of measured Dose/g from [ 1 , 2 ] Could you answer with the label of the item you picked?
Given back: 1

###

System: Rattus norvegicus
run.description: Concentration accumulated in liver at 0.5 hr after intravenous administration in rat
Format: ADME, organism-based
experimental.parameters: in vivo
metric.name: Dose/g (%)

> print(dat)
                                   compound  metric.name  readout.units  reported.result
1  CC(C)CCCC(C)C1CCC2C3CC(CI)C4=C(CCC(O)C4)C3CCC12C (stereo not given)       Dose/g              %             4.57
2  C[C@H](NC(=O)c1ccccc1I)C1CCC2C3CC=C4CC(O)CCC4(C)C3CCC21C (stereo not given in full)       Dose/g              %             3.85

1: C[C@H](OC(=O)c1ccccc1I)C1CCC2C3CC=C4CC(O)CCC4(C)C3CCC21C (stereo not given in full)
2: C[C@@H](NC(=O)c1ccccc1I)C1CCC2C3CC=C4CC(O)CCC4(C)C3CCC21C (stereo not given in full)
3: C[C@@H](OC(=O)c1ccccc1I)C1CCC2C3CC=C4CC(O)CCC4(C)C3CCC21C (stereo not given in full)
Asked: Exam item: list the entries in increasing order of Dose/g. Give the labels in the order requested.
Given back: 2, 1, 3
(2: 1.28%, 1: 3.92%, 3: 6.04%)

###

Tested on: Rattus norvegicus
run.description: Concentration accumulated in kidney at 0.5 hr after intravenous administration in rat
Assay type: ADME, organism-based
experimental.parameters: in vivo
metric.name: Dose/g (%)

> print(dat)
                                   compound  readout.units  reported.result
1  C[C@H](NC(=O)c1ccccc1I)C1CCC2C3CC=C4CC(O)CCC4(C)C3CCC21C (stereo not given in full)              %             0.41
2  C[C@H](OC(=O)c1ccccc1I)C1CCC2C3CC=C4CC(O)CCC4(C)C3CCC21C (stereo not given in full)              %             1.29
3  CC(C)CCCC(C)C1CCC2C3CC(CI)C4=C(CCC(O)C4)C3CCC12C (stereo not given)              %             0.45

a: C[C@@H](NC(=O)c1ccccc1I)C1CCC2C3CC=C4CC(O)CCC4(C)C3CCC21C (stereo not given in full)
b: C[C@@H](OC(=O)c1ccccc1I)C1CCC2C3CC=C4CC(O)CCC4(C)C3CCC21C (stereo not given in full)
Asked: Endpoint returns the identifier whose Dose/g is numerically larger, either a or b . Could you answer with the label of the item you picked?
Given back: b

###

Tested on: Rattus norvegicus
run.description: Concentration accumulated in adrenal cortex at 24 hr r after intravenous administration in rat
Format: ADME, organism-based
experimental.parameters: in vivo
metric.name: Dose/g (%)

Consider the following illustrative entries.
> print(dat)
                                   compound  reported.result
1  C[C@@H](OC(=O)c1ccccc1I)C1CCC2C3CC=C4CC(O)CCC4(C)C3CCC21C (stereo not given in full)             1.23
2  CC(C)CCCC(C)C1CCC2C3CC(CI)C4=C(CCC(O)C4)C3CCC12C (stereo not given)           116.21

A: C[C@H](NC(=O)c1ccccc1I)C1CCC2C3CC=C4CC(O)CCC4(C)C3CCC21C (stereo not given in full)
B: C[C@@H](NC(=O)c1ccccc1I)C1CCC2C3CC=C4CC(O)CCC4(C)C3CCC21C (stereo not given in full)
Asked: Endpoint returns the identifier whose Dose/g is numerically larger, either A or B . Could you answer with the label of the item you picked?
Given back: B
(B: 0.55%, A: 0.1%)

###

System: Rattus norvegicus
run.description: Concentration accumulated in thyroid at 0.5 hr after intravenous administration in rat
Type: ADME, organism-based, Thyroid gland
experimental.parameters: in vivo
metric.name: Dose/g (%)

Consider the following illustrative entries.
> print(dat)
                                   molecule  metric.name  reported.result
1  C[C@H](OC(=O)c1ccccc1I)C1CCC2C3CC=C4CC(O)CCC4(C)C3CCC21C (stereo not given in full)       Dose/g             4.96
2  CC(C)CCCC(C)C1CCC2C3CC(CI)C4=C(CCC(O)C4)C3CCC12C (stereo not given)       Dose/g             1.37
3  C[C@H](NC(=O)c1ccccc1I)C1CCC2C3CC=C4CC(O)CCC4(C)C3CCC21C (stereo not given in full)       Dose/g              2.2

I: C[C@@H](OC(=O)c1ccccc1I)C1CCC2C3CC=C4CC(O)CCC4(C)C3CCC21C (stereo not given in full)
II: C[C@@H](NC(=O)c1ccccc1I)C1CCC2C3CC=C4CC(O)CCC4(C)C3CCC21C (stereo not given in full)
Asked: // select label with min value of measured Dose/g from [ I , II ] Could you answer with the label of the item you picked?
Given back: II
(II: 1.4%, I: 2.93%)

Reference source: ChEMBL document CHEMBL1124419
